methodNotes: Cytotoxicity against African green monkey CV1 cells assessed as viable cells at 1 uM after 110 hrs by real-time cell analysis relative to control
Assay type: cell-based, CV-1
conditionDescription: chlorocebus aethiops, read-out: Activity
experimentalReadout: viability at 110 h, 1 µM (%)
The answer is to be given in %; state only the numeric part.

Give the value of viability at 110 h, 1 µM reported for the following: CN(C)CCCNCCn1c2ccccc2c2nc3ccccc3nc21
114

Give the value of viability at 110 h, 1 µM reported for the following: c1ccc2nc3c(nc2c1)c1ccccc1n3CCNCCCN1CCOCC1
107

Give the value of viability at 110 h, 1 µM reported for the following: CCN(CC)CCCNCCn1c2ccccc2c2nc3ccccc3nc21
97.1

Give the value of viability at 110 h, 1 µM reported for the following: CN(C)CCCNC(=O)Cn1c2ccccc2c2nc3ccccc3nc21
104

Give the value of viability at 110 h, 1 µM reported for the following: COc1ccc2c(c1)c1nc3ccccc3nc1n2CCN1CCCCC1
108

====

methodNotes: Cytotoxicity against African green monkey CV1 cells assessed as cell viability at 0.1 to 100 uM preincubated for 4 hrs measured after 24 hrs by MTT assay relative to control
Type: cell-based, CV-1
conditionDescription: chlorocebus aethiops, read-out: Activity
Hi! Just check whether viability at 24 h, up to 100 µM is below 90%. Below gives yes (1), equal or above gives no (0).

Given the entry O=C(CCCn1c2ccccc2c2nc3ccccc3nc21)NCCN1CCCCC1 , would its reported viability at 24 h, up to 100 µM be below 90%?
no (0)

Given the entry O=C(Cn1c2ccccc2c2nc3ccccc3nc21)NCCCN1CCOCC1 , would its reported viability at 24 h, up to 100 µM be below 90%?
no (0)

Given the entry CN(C)CCn1c2ccccc2c2nc3ccccc3nc21 , would its reported viability at 24 h, up to 100 µM be below 90%?
yes (1)

Given the entry CN1CCN(CC(=O)NN2C(=O)c3cccc4cccc(c34)C2=O)CC1 , would its reported viability at 24 h, up to 100 µM be below 90%?
yes (1)

Given the entry CN1CCN(CCn2c3ccccc3c3nc4ccccc4nc32)CC1 , would its reported viability at 24 h, up to 100 µM be below 90%?
yes (1)

Given the entry O=C(CN1CCCCCC1)NN1C(=O)c2cccc3cccc(c23)C1=O , would its reported viability at 24 h, up to 100 µM be below 90%?
no (0)

Given the entry O=C(Cn1c2ccccc2c2nc3ccccc3nc21)NCCN1CCOCC1 , would its reported viability at 24 h, up to 100 µM be below 90%?
no (0)

Given the entry CC1CCN(CC(=O)NN2C(=O)c3cccc4cccc(c34)C2=O)CC1 , would its reported viability at 24 h, up to 100 µM be below 90%?
no (0)

Given the entry CN(C)CCCNC(=O)Cn1c2ccccc2c2nc3ccccc3nc21 , would its reported viability at 24 h, up to 100 µM be below 90%?
yes (1)

====

Organism: Bos taurus
methodNotes: Displacement of ethidium bromide from calf thymus DNA by fluorescence binding assay
Hi! Just check whether log Ka is below 6. Below gives YES, equal or above gives NO.

Given the entry CCN(CC)CCCNC(=O)CCCN1C(=O)c2cccc3cccc(c23)C1=O , would its reported log Ka be below 6?
NO

Given the entry OCCNCCn1c2ccc3ccccc3c2c2nc3ccccc3nc21 , would its reported log Ka be below 6?
NO

Given the entry O=C(CN1CCCCC1)N/N=C1/C(=O)Nc2ccc3ccccc3c21 , would its reported log Ka be below 6?
NO

Given the entry O=C(CN1CCOCC1)NN1C(=O)c2cccc3cccc(c23)C1=O , would its reported log Ka be below 6?
YES

Given the entry CCN(CC)CCCNC(=O)CCCn1c2ccccc2c2nc3ccccc3nc21 , would its reported log Ka be below 6?
YES

Given the entry O=C(CCCn1c2ccccc2c2nc3ccccc3nc21)NCCN1CCCCC1 , would its reported log Ka be below 6?
YES

Given the entry CN(C)CCn1c2ccc3ccccc3c2c2nc3ccccc3nc21 , would its reported log Ka be below 6?
NO

Given the entry c1ccc2nc3c(nc2c1)c1ccccc1n3CCCCCN1CCCCC1 , would its reported log Ka be below 6?
YES

Given the entry CCCN(CCC)CCn1c2ccc3ccccc3c2c2nc3ccccc3nc21 , would its reported log Ka be below 6?
NO
